- TARGET DESC: MAGEB2 peptide … / HLA-A*02:01 / b2m (human)
- TEST METHOD NOTES: FACS
pKd: −log10 of the molar value.
Kind request: treat 9 as inclusive, so pKd at 9 or higher is 1, anything lower is -1.

Problem: Does MA 03-E7_AS CC (L6M) (antibody, V domains shown) VH: EVQLLESGGGVVQPGRSLRLSCAASGFTFSSHAMSWVRQAPGKCLEWVSAISGSGGGTYYAASGKGRFTISRDNSKNTLYLQMNSLRAEDTAAYYCVTGKGVHLGFDYWGQGTLVTVSS VL: SYVLTQPPSVSVAPGQTARITCGGNNIGSKSVHWYQQKPGQAPVMVVYDDNDRPSGIPERFSGSNSGNTATLTISRVEAGDEADYYCQVWDYNMNVWVFGCGTKLTVL have a reported pKd of at least 9?
Solution: 1

Problem: Does MA 86-A4 CC (K2W) (antibody, V domains shown) VH: QVQLVESGGGVVQPGRSLRLSCAASGFTFSTYGMHWVRQAPGKCLEWVAVISYDASNKYYAESVKGRFTISRDNSKNTLYLQMNSLRAEDTAVYYCARGQLLTGYWGQGTLVTVSS VL: DIQMTQSPSSLSASVGDRVTITCRASQGISNYLAWYQQKPGKVPKLLIYAASTLQSGVPSRFSGSGSGTDFTLTISSLQPEDFATYYCQKYNSAPFTFGCGTKVEIK have a reported pKd of at least 9?
Solution: -1

Problem: Does MA 86-A4-N-F5 CC (M4H) (antibody, V domains shown) VH: QVQLVESGGGVVQPGRSLRLSCAASGFTFSTYGMHWVRQAPGKCLEWVAVISYDAETVKYAESVKGRFTISRDNSKNTLYLQMNSLRAEDTAVYYCARGQLLTGYWGQGTLVTVSS VL: DIQMTQSPSSLSASVGDRVTITCRASQGISNYLAWYQQKPGKVPKLLIYAASTLQSGVPSRFSGSGSGTDFTLTISSLQPEDVATYYCQKYNSAPFTFGCGTKVEIK have a reported pKd of at least 9?
Solution: -1
